Reported melting point by item:

>>> df
                           substance_smiles    measurement
0  COc1cc(NC(=O)Cn2cnc3onc(-c4ccc(F)cc4)c3c2=O)cc(OC)c1OC  219 to 221 °C
1  O=C(Cn1cnc2onc(-c3ccc(F)cc3)c2c1=O)NC12CC3CC(CC(C3)C1)C2  204 to 205 °C
2  COC(=O)c1ccc(CNC(=O)Cn2cnc3onc(-c4ccc(F)cc4)c3c2=O)cc1  165 to 167 °C
3  CC(C)c1ccc(NC(=O)Cn2cnc3onc(-c4ccc(F)cc4)c3c2=O)cc1  198 to 202 °C
4  CS(=O)(=O)c1ccc(NC(=O)Cn2cnc3onc(-c4ccc(F)cc4)c3c2=O)cc1  234 to 238 °C

Give the measured melting point for O=C(Cn1cnc2onc(-c3ccc(F)cc3)c2c1=O)Nc1ccc(F)cc1 206 to 209 °C

Give the value of melting point reported for the following: O=C(Cn1cnc2onc(-c3ccc(OCc4ccccc4)cc3)c2c1=O)N1CCCc2ccccc21 200 to 202 °C

Using the record for O=C(Cn1cnc2onc(-c3ccc(F)cc3)c2c1=O)N1CCc2ccccc2C1 , state its measured melting point. 201 to 203 °C

Annotate the compound O=C(Cn1cnc2onc(-c3ccc(F)cc3)c2c1=O)Nc1cccc2ccccc12 with its measured melting point. 210 to 215 °C

Complete the entry with melting point for O=C(Cn1cnc2onc(-c3ccc(F)cc3)c2c1=O)N1CCCCC1 174 to 176 °C

Please look at this compound and report its melting point: O=C(Cn1cnc2onc(-c3ccsc3)c2c1=O)Nc1ccc([N+](=O)[O-])cc1 231 to 233 °C

----------
Biological target: hIDO2 (Homo sapiens, UniProt Q6ZQW0)
Construct: purchased Vinci-Biochem
Sequence (Q6ZQW0 1-407): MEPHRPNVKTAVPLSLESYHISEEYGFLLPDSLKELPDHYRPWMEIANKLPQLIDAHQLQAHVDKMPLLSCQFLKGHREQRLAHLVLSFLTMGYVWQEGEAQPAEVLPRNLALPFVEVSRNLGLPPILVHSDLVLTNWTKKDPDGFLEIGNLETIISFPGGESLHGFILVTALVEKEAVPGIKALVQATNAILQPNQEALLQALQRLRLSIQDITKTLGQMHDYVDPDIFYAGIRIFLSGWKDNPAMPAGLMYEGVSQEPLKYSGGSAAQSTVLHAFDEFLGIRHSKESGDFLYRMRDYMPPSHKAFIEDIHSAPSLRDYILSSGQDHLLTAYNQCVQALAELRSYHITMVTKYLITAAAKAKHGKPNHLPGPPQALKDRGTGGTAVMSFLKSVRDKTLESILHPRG
Experiment: hIDO2 inhibitory potency evaluation (fluorescence assay)
Type: biochemical
Details: positive control, assay validation; read-out: IDO2 IC50
Reported metric: pIC50
The value called pIC50 is obtained by taking minus log10 of the concentration in mol/L.

Give me measured pIC50, please, for this compound: NS(=O)(=O)NCCNc1nonc1C(=NO)Nc1ccc(F)c(Br)c1 [epacadostat, reference compound] 6.24

----------
Biological target: hTDO (Homo sapiens, UniProt P48775)
Construct: purchased Vinci-Biochem
Sequence (P48775 whole entry): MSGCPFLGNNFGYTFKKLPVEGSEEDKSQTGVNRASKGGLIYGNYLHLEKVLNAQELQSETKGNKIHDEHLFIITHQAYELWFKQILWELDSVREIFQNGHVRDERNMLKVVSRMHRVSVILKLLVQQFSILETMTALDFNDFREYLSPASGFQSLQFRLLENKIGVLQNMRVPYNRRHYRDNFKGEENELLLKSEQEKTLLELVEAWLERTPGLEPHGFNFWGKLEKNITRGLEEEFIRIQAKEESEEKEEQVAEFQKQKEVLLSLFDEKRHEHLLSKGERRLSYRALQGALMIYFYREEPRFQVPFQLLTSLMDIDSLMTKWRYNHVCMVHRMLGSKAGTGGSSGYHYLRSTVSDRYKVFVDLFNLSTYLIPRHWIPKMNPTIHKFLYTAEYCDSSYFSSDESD
Assay: hTDO inhibitory potency evaluation (fluorescence assay)
Format: biochemical
Settings: 100 µM compound; n.a. = not active; read-out: TDO % of Inhibition @ 100 µM
Reported metric: inhibition at 100 µM (%)

In [3]: df
Out[3]:
                                   compound                      target_of_assay       reported_metric  measurement
0  CN(C)c1ccc(NC(=O)Cn2cnc3onc(-c4ccc(F)cc4)c3c2=O)cc1 [Compound 28]  hTDO (Homo sapiens, UniProt P48775)  inhibition at 100 µM           18

(1) O=C(Cn1cnc2onc(-c3ccc(F)c(Br)c3)c2c1=O)Nc1ccc([N+](=O)[O-])cc1 [Compound 49]
(2) N#Cc1ccc(NC(=O)Cn2cnc3onc(-c4ccc(F)cc4)c3c2=O)cc1 [Compound 27]
Of the pair 1 and 2 , name the member with the lesser recorded inhibition at 100 µM. API: response body contains the label of the selected item. 1
(1: 10%, 2: 17%)
